assay: chemical genetic growth profiling, strain panel (AID 1159580);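 also: tested at 20 µM; growth read once vehicle control cultures reached saturation at 30 °C; 1 = growth at the plate median or of vehicle wells; lower values mean less growth of the strain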; details: S. cerevisiae deletion strains, growth OD, locus YAL026C, strain drs2, stronger effect = lower value
In all, about 5,500 compounds went through this assay and about 2,000 (36%) were called active. Another 18% or so got no clear call; they are omitted. Some of the results follow.
We label by threshold. Values of normalized growth strictly beneath 1 are true (1). Values of 1 and up are false (0).

Record excerpt, results attached:
COc1ccc2c(c1)OCC(Cc1ccc(OC)c(O)c1)C2=O (stereo not given)	true (1)
C[C@H]1C[C@@H](O)[C@]2(O)[C@@]13CC(=O)OC[C@@]2(C)[C@](C)(O)C(=O)C3	false (0)
COc1ccc2c(c1)OCC(Cc1ccc(OC)c(OC(C)=O)c1)C2=O (stereo not given)	true (1)

// switching to the query molecule
*Q* Please state whether normalized growth is below 1 for COc1ccnc(CS(=O)c2nc3ccc(OC(F)F)cc3[nH]2)c1OC (stereo not given)
*A* false (0)

###

// values below are reported normalized growth
experiment: chemical genetic growth profiling, strain panel (AID 1159580);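 also: tested at 20 µM; growth read once vehicle control cultures reached saturation at 30 °C; 1 = growth at the plate median or of vehicle wells; lower values mean less growth of the strain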; conditions: S. cerevisiae deletion strains, growth OD, locus YJL154C, strain vps35, stronger effect = lower value
About 2,000 (36%) of roughly 5,500 compounds were called active. Inconclusive results (about 18%) are left out. The list shows a part of the results.
Please respond with just the number, no unit label.

Observe how each entry below is paired with its result.
O=C(O)C(O)C(O)C(=O)O (configuration not stated)	0.988
COc1ccc2c(c1)OCC(Cc1ccc(OC)c(OC(C)=O)c1)C2=O (configuration not stated)	0.98

*Q* For `NC(N)=NCCCCN=C(N)N` , what is its reported normalized growth?
*A* 0.992

*Q* Return reported normalized growth; argument: NC(C(=O)O)C(O)C(=O)O (configuration not stated)
*A* 0.987

###

Each entry below carries its recorded normalized growth.
assay: chemical genetic growth profiling, strain panel (AID 1159580);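 also: tested at 20 µM; growth read once vehicle control cultures reached saturation at 30 °C; 1 = growth at the plate median or of vehicle wells; lower values mean less growth of the strain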; details: S. cerevisiae deletion strains, growth OD, locus YCL011C, strain gbp2, stronger effect = lower value
The campaign covered roughly 5,500 compounds. About 2,000 (36%) were called active. Another 18% or so got no clear call; they are omitted. The list shows a part of the results.
API note: the answer field is a bare number with no unit suffix.

// known answers, use as guide
COC[C@]12CN(C=O)C3[C@@H]4[C@H](OC)C1[C@]3(C1CC3(O)C(OC)C(O)C4(OC(C)=O)C1C3OC(=O)c1ccccc1)[C@@H](OC)C[C@H]2O (some centres not stated)	1.01
O=c1[nH]c(=O)n(C2C[C@H](O)[C@@H](CO)O2)cc1C(F)(F)F (some centres not stated)	0.954
CC(C)/C(O)=C1/C(=O)O[C@@H](c2ccoc2)[C@]2(C)C(O)[C@@H](O)[C@@]34OC5(C)OC67CC(C)(C(O)[C@]6(O)[C@@H](O)[C@]3(O5)C12)[C@H](CC(=O)O)[C@]74C (some centres not stated)	0.975
Clc1ccc(C(Cn2ccnc2)OCc2ccsc2Cl)c(Cl)c1 (configuration not stated)	0.0554
CN(C/C=C/C#CC(C)(C)C)Cc1cccc2ccccc12	0.228
COC(=O)[C@@H]1OC(=O)C2OC23[C@@]1(C)CCC1[C@@]2(C)CCC(=O)C(C)(C)C2C[C@@H](OC(C)=O)[C@]13C (some centres not stated)	1.01

*Q* Fill in the blank: the reported normalized growth of CCC(=O)OC1[C@@H]2CC3=C4CC(=O)O[C@@H](c5ccoc5)[C@]4(C)CCC3[C@@](C)(C2=O)[C@@H](CC(=O)OC)C1(C)C (some centres not stated) is ____.
*A* 1.01

From: PubChem BioAssay AID1159580
